# measurement_description: Drug accumulation in wild-type Candida albicans SC5314 at 50 microg/ml incubated for 3 hrs by HPLC analysis
# Format: ADME
# condition_info: BLD = below limit of detection, dose 50 µg/ml
test_readout: Drug uptake

{"compound": "CC(=O)O[C@H]1C[C@@]2(C)[C@@H](C[C@@H](O)[C@H]3[C@@]4(C)CC[C@@H](O)[C@@H](C)[C@@H]4CC[C@@]32C)/C1=C(\\CCC=C(C)C)C(=O)O [FUSIDIC ACID]", "test_readout": "Drug uptake", "experimental_result": "Bld"}
{"compound": "CC1(C)CC[C@]2(C(=O)O)CC[C@]3(C)C(=CC[C@@H]4[C@@]5(C)CC[C@H](O)C(C)(C)[C@@H]5CC[C@]43C)[C@@H]2C1 [OLEANOLIC_ACID]", "test_readout": "Drug uptake", "experimental_result": "Bld"}
{"compound": "CCOC(=O)C1=C(COCCN)NC(C)=C(C(=O)OC)C1c1ccccc1Cl (centres undefined) [AMLODIPINE]", "test_readout": "Drug uptake", "experimental_result": "Bld"}
{"compound": "C=CCc1ccc(O)c(-c2ccc(O)c(CC=C)c2)c1 [HONOKIOL]", "test_readout": "Drug uptake", "experimental_result": "Bld"}

* * *

# System: Candida albicans
# measurement_description: Antifungal activity against clinical isolate Candida albicans YEM13 overexpressing efflux pump MdrL assessed as inhibition of fungal growth measured after 24 hrs by CLSI based microtiter plate analysis
# Type: functional

{"compound": "C=C1C[C@@]23CC[C@H]4[C@@](C)(CCC[C@@]4(C)C(=O)OCCCOc4ccc(C(=N)N)cc4)[C@@H]2CC[C@]1(O)C3", "subject_of_test": "Candida albicans", "MIC80 [µg/mL]": 8}
{"compound": "C=CCc1ccc(OCCCOc2ccc(C(=N)N)cc2)c(-c2ccc(O)c(CC=C)c2)c1", "subject_of_test": "Candida albicans", "MIC80 [µg/mL]": 8}
{"compound": "CC/C(=C(/CC)c1ccc(OCCCOc2ccc(C(=N)N)cc2)cc1)c1ccc(O)cc1", "subject_of_test": "Candida albicans", "MIC80 [µg/mL]": 4}
{"compound": "C=C1C[C@@]2(CC)[C@@H](CC[C@@]2(O)c2cn(CCCOc3ccc(C(=N)N)cc3)nn2)[C@@H]2CCC3=CCCC[C@@H]3[C@@H]12", "subject_of_test": "Candida albicans", "MIC80 [µg/mL]": 32}
{"compound": "CCOC(=O)C1=C(COCCNCCCOc2ccc(C(=N)N)cc2)NC(C)=C(C(=O)OC)C1c1ccccc1Cl (centres undefined)", "subject_of_test": "Candida albicans", "MIC80 [µg/mL]": 4}
{"compound": "C=C1C(=O)[C@@]23CC[C@H]4[C@@](C)(CCC[C@@]4(C)C(=O)OCCCOc4ccc(C(=N)N)cc4)[C@@H]2CC[C@]1(O)C3", "subject_of_test": "Candida albicans", "MIC80 [µg/mL]": 4}
{"compound": "C=C1C(=O)[C@@]2(C)CC[C@@H]3[C@@]1(CC[C@H]1[C@@]3(C)CCC[C@@]1(C)C(=O)OCCCOc1ccc(C(=N)N)cc1)C2", "subject_of_test": "Candida albicans", "MIC80 [µg/mL]": 1}
{"compound": "C[C@@]12CC[C@@H]3[C@](CC[C@H]4[C@@]3(C)CCC[C@@]4(C)C(=O)OCCCOc3ccc(C(=N)N)cc3)(CC1=O)C2", "subject_of_test": "Candida albicans", "MIC80 [µg/mL]": 4}
{"compound": "OC(Cn1cncn1)(Cn1cncn1)c1ccc(F)cc1F", "subject_of_test": "Candida albicans", "MIC80 [µg/mL]": 64}
{"compound": "N=C(N)c1ccc(OCCCN2CCC(=C3c4ccc(Cl)cc4CCc4cccnc43)CC2)cc1", "subject_of_test": "Candida albicans", "MIC80 [µg/mL]": 32}
{"compound": "C[C@@H]1[C@H](O)[C@@H](C)/C=C/C=C/C=C/C=C/C=C/C=C/C=C/[C@H](O[C@@H]2O[C@H](C)[C@@H](O)[C@H](N)[C@@H]2O)C[C@@H]2O[C@](O)(C[C@@H](O)C[C@@H](O)[C@H](O)CC[C@@H](O)C[C@@H](O)CC(=O)O[C@H]1C)C[C@H](O)[C@H]2C(=O)O", "subject_of_test": "Candida albicans", "MIC80 [µg/mL]": 0.5}
{"compound": "C[C@H]1[C@H](C)CC[C@]2(C(=O)OCCCOc3ccc(C(=N)N)cc3)CC[C@]3(C)C(=CC[C@@H]4[C@@]5(C)CC[C@H](O)C(C)(C)[C@@H]5CC[C@]43C)[C@H]12", "subject_of_test": "Candida albicans", "MIC80 [µg/mL]": 4}
{"compound": "C=CCc1ccc(O)c(-c2ccc(OCCCOc3ccc(C(=N)N)cc3)c(CC=C)c2)c1", "subject_of_test": "Candida albicans", "MIC80 [µg/mL]": 8}
{"compound": "Cc1ccc(Sc2ccccc2N2CCN(CCCOc3ccc(C(=N)N)cc3)CC2)c(C)c1", "subject_of_test": "Candida albicans", "MIC80 [µg/mL]": 4}

* * *

# measurement_description: Selectivity ratio of IC50 for cytotoxicity against human HBE cells to MIC80 for antifungal activity against clinical isolate Candida albicans YEM13 overexpressing efflux pump MdrL
# Format: toxicity, cell-based
test_readout: selectivity ratio

{"structure_smiles": "C=C1C(=O)[C@@]2(C)CC[C@@H]3[C@@]1(CC[C@H]1[C@@]3(C)CCC[C@@]1(C)C(=O)OCCCOc1ccc(C(=N)N)cc1)C2", "experimental_result": 8}

* * *

# measurement_description: Drug accumulation in wild-type Candida albicans SC5314 at 50 microg/ml incubated for 3 hrs by HPLC analysis
# Format: ADME
# condition_info: BLD = below limit of detection, dose 50 µg/ml
test_readout: Drug uptake

{"structure_smiles": "C#C[C@]1(O)CC[C@H]2[C@@H]3CCC4=CCCC[C@@H]4[C@H]3C(=C)C[C@@]21CC", "test_readout": "Drug uptake", "experimental_result": "Bld"}
{"structure_smiles": "C[C@@H]1CC[C@@]2(OC1)O[C@H]1C[C@H]3[C@@H]4CC=C5C[C@@H](O)CC[C@]5(C)[C@H]4CC[C@]3(C)[C@H]1[C@@H]2C", "test_readout": "Drug uptake", "experimental_result": "Bld"}
{"structure_smiles": "C=C1C(=O)[C@@]2(C)CC[C@@H]3[C@@]1(CC[C@H]1[C@@]3(C)CCC[C@@]1(C)C(=O)OCCCCCCCCCOc1ccc(C(=N)N)cc1)C2", "test_readout": "Drug uptake", "experimental_result": "Bld"}
{"structure_smiles": "C[C@@]12CC[C@@H]3[C@@](CC[C@H]4[C@@]3(C)CCC[C@@]4(C)C(=O)O)(CC1=O)C2", "test_readout": "Drug uptake", "experimental_result": "Bld"}
{"structure_smiles": "C=C1C(=O)[C@@]23CC[C@H]4[C@@](C)(CCC[C@@]4(C)C(=O)O)[C@@H]2CC[C@]1(O)C3", "test_readout": "Drug uptake", "experimental_result": "Bld"}
{"structure_smiles": "C=C1C(=O)[C@@]2(C)CC[C@@H]3[C@]1(CC[C@H]1[C@@]3(C)CCC[C@@]1(C)C(=O)O)C2", "test_readout": "Drug uptake", "experimental_result": "Bld"}

* * *

# measurement_description: Selectivity ratio of IC50 for cytotoxicity against human HBE cells to MIC80 for antifungal activity against clinical isolate Candida albicans SCUPC2R14MPG2A harbouring UPC2 mutation overexpressing […]
# Assay type: toxicity, cell-based

{"structure_smiles": "C=C1C(=O)[C@@]2(C)CC[C@@H]3[C@@]1(CC[C@H]1[C@@]3(C)CCC[C@@]1(C)C(=O)OCCCOc1ccc(C(=N)N)cc1)C2", "selectivity ratio": 8}

* * *

# measurement_description: Selectivity ratio of IC50 for cytotoxicity against human HBE cells to MIC80 for antifungal activity against clinical isolate Candida albicans SCMRRIR34MPG2A harbouring MRR1 mutation overexpressing efflux pump MdrL
# Assay type: toxicity, cell-based

{"structure_smiles": "C=C1C(=O)[C@@]2(C)CC[C@@H]3[C@@]1(CC[C@H]1[C@@]3(C)CCC[C@@]1(C)C(=O)OCCCOc1ccc(C(=N)N)cc1)C2", "selectivity ratio": 8}

* * *

# measurement_description: Cytotoxicity against human HBE cells assessed as inhibition of cell growth measured after 4 hrs by MTT assay
# Type: toxicity, cell-based
Listing of recorded IC50 at 4 h by entry.
test_readout: IC50 at 4 h (µg/mL)

{"structure_smiles": "C=C1C[C@@]23CC[C@H]4[C@@](C)(CCC[C@@]4(C)C(=O)OCCCn4c(CC)[n+](C)c5ccccc54)[C@@H]2CC[C@]1(O)C3.[I-]", "censoring_qualifier": ">", "experimental_result": 32}
{"structure_smiles": "C=C1C[C@@]23CC[C@H]4[C@@](C)(CCC[C@@]4(C)C(=O)OCCCCC[n+]4c(C)cc(N)c5ccccc54)[C@@H]2CC[C@]1(O)C3.[I-]", "censoring_qualifier": "=", "experimental_result": 6.53}
{"structure_smiles": "C=C1C[C@@]23CC[C@H]4[C@@](C)(CCC[C@@]4(C)C(=O)OCCCc4c5[n+](cc6c(OC)c(OC)ccc46)CCc4cc6c(cc4-5)OCO6)[C@@H]2CC[C@]1(O)C3.[I-]", "censoring_qualifier": "=", "experimental_result": 4.79}
{"structure_smiles": "C=C1C[C@@]23CC[C@H]4[C@@](C)(CCC[C@@]4(C)C(=O)OCCCOc4ccc(C(=N)N)cc4)[C@@H]2CC[C@]1(O)C3", "censoring_qualifier": ">", "experimental_result": 32}
{"structure_smiles": "C=C1C(=O)[C@@]2(C)CC[C@@H]3[C@@]1(CC[C@H]1[C@@]3(C)CCC[C@@]1(C)C(=O)OCCCOc1ccc(C(=N)N)cc1)C2", "censoring_qualifier": "=", "experimental_result": 16.7}
{"structure_smiles": "C=C1C[C@@]23CC[C@H]4[C@@](C)(CCC[C@@]4(C)C(=O)OCCC[P+](c4ccccc4)(c4ccccc4)c4ccccc4)[C@@H]2CC[C@]1(O)C3.[I-]", "censoring_qualifier": "=", "experimental_result": 3.59}

Origin of measurements: ChEMBL document CHEMBL5365543
